Consider the following binders; for each one, report its SPOT intensity.
- measurement target: T1, Bud14, P27637
- T1 sequence (P27637 247-328, looked up): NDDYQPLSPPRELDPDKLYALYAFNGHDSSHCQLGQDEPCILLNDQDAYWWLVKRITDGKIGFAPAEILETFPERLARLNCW
- assay summary: SPOT array
- assay setup: median of control spots 956
# print the numeric value only

Request: What value of SPOT intensity has been reported for the following binder? `VNIPSPSSSPPPIPK`
Response: 1

Request: What value of SPOT intensity has been reported for the following binder? `VGFRLALKFPSRITG`
Response: 29

Request: What value of SPOT intensity has been reported for the following binder? `RNNRPVPPPPPMRTT`
Response: 0

Request: What value of SPOT intensity has been reported for the following binder? `RRLRDKYKLPIVDAD`
Response: 26

Request: What value of SPOT intensity has been reported for the following binder? `QRIRKIPGIPLMSVG`
Response: 9

Request: What value of SPOT intensity has been reported for the following binder? `VQPTAAPATPPRHIS`
Response: 0

Request: What value of SPOT intensity has been reported for the following binder? `GLRRARYKFPGQQKI`
Response: 9

Request: What value of SPOT intensity has been reported for the following binder? `YYNRQELALPKRMSS`
Response: 3

Request: What value of SPOT intensity has been reported for the following binder? `TEVPIPRRPPPPQAA`
Response: 0

Request: What value of SPOT intensity has been reported for the following binder? `DAPASKPSVPPRNYF`
Response: 0

Request: What value of SPOT intensity has been reported for the following binder? `LLRRTIPKRPFYHVL`
Response: 13

Request: What value of SPOT intensity has been reported for the following binder? `KKAPPPVVKPKPRNF`
Response: 3

Request: What value of SPOT intensity has been reported for the following binder? `LLGRKRPVMERVVDI`
Response: 3

Request: What value of SPOT intensity has been reported for the following binder? `KTRLRPAFIQQLWSS`
Response: 4

Request: What value of SPOT intensity has been reported for the following binder? `HPRFVSPRIPSRIVK`
Response: 0
